The reported numbers originate from the supplement of paper PMC9233669.

Each entry below carries its reported self-aminoacylation.
Tested on: biotinyl-Trp-oxazolone
Assay: self-aminoacylation, catalytic enhancement (BWO) (fold over background); higher = more active; k-Seq, kA / k0A0; sequences stand for … in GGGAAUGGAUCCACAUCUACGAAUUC…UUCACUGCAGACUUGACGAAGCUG
Variants at the floor of the assay were thinned out.
Write the value as a bare number.

> print(dat)
                        biopolymer.sequence  result.value
1  AUUACCAUGGUGAUCGAGUGA [Fam2.1 aminoacylation ribozyme variant]           4.4
2  AGUACCCGGGUCAUCGAGUGA [Fam2.1 aminoacylation ribozyme variant]          7.64
3  AAGUUUGCUAAUACUGGCAAG [Fam3.1 aminoacylation ribozyme variant]         0.458
4  AUUCACCCAGGUCAUCGGGGG [Fam2.2 aminoacylation ribozyme variant]          1.92
5  AUUACCCGGGUCAUCGUGUGA [Fam2.1 aminoacylation ribozyme variant]          5.65

For the sequence AUUACGCUGGUCAGCGAGUGA [Fam2.1 aminoacylation ribozyme variant] , what self-aminoacylation is on record? 4.4

Then this sequence: CCACACUUUAAGCAAUCAGUC [Fam1B.1 aminoacylation ribozyme variant] 0.749

Then this sequence: AAGUUUCCUAAUAGACGCAAG [Fam3.1 aminoacylation ribozyme variant] 0.895

Then this sequence: AAGUUUGCUAAUCGUCGCUAG [Fam3.1 aminoacylation ribozyme variant] 0.871

====

Each entry below carries its reported self-aminoacylation.
Tested on: biotinyl-Val-oxazolone
Experiment: self-aminoacylation, catalytic enhancement (BVO) (fold over background); higher = more active; k-Seq, kA / k0A0; sequences stand for … in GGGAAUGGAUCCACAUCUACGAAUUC…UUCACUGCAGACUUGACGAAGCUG
Variants at the floor of the assay were thinned out.
Write the value as a bare number.

Consider the reported self-aminoacylation for these sequences:
> print(dat)
                        biopolymer.sequence         subject.of.test  result.value
1  UUACUUCAAACAAUCGGUUUG [Fam1A.1 aminoacylation ribozyme variant]  biotinyl-Val-oxazolone          1.24
2  AAGCUUGCGAAUAGUCGCAAG [Fam3.1 aminoacylation ribozyme variant]  biotinyl-Val-oxazolone          1.64
3  AUUCCCAUGGUCAUCGAGUGA [Fam2.1 aminoacylation ribozyme variant]  biotinyl-Val-oxazolone          5.75
4  AUUACCCUGGUCAUCUAGUGC [Fam2.1 aminoacylation ribozyme variant]  biotinyl-Val-oxazolone             1
5  AAGUUUCGUAAUAGUCGCAAG [Fam3.1 aminoacylation ribozyme variant]  biotinyl-Val-oxazolone          1.33

For the sequence AUUAGCCUGUUCAUCGAGUGA [Fam2.1 aminoacylation ribozyme variant] , what self-aminoacylation is on record? 3.27

Then this sequence: CAACACUUCAAGCAAGCGGUC [Fam1B.1 aminoacylation ribozyme variant] 0.953

Then this sequence: CUACUUCAGACAAUCGGUUUG [Fam1A.1 aminoacylation ribozyme variant] 0.86

Then this sequence: AAGUAUGCUAAUAGUUGCAAG [Fam3.1 aminoacylation ribozyme variant] 1.38

Then this sequence: AAGCUUGCUGAUAGUCGCAAG [Fam3.1 aminoacylation ribozyme variant] 2.45

Then this sequence: CGACACUUCAAGCAGUCGGUC [Fam1B.1 aminoacylation ribozyme variant] 0.99

Then this sequence: CUACUUCAAAUAAUCGGUGUG [Fam1A.1 aminoacylation ribozyme variant] 0.826

Then this sequence: AUUCCCCUGGUCAUGGAGUGA [Fam2.1 aminoacylation ribozyme variant] 3.12

Then this sequence: AAGUUUGUUAAUACUCGCAAG [Fam3.1 aminoacylation ribozyme variant] 0.81

Then this sequence: AUUACCCUCGUCAUCGAGUAA [Fam2.1 aminoacylation ribozyme variant] 1.02

Then this sequence: AUCCACCUAGGUCAUCCGGUG [Fam2.2 aminoacylation ribozyme variant] 6.56

Then this sequence: CUCCUUCAAACGAUCGGUCUG [Fam1A.1 aminoacylation ribozyme variant] 0.925

Then this sequence: AAGUUUGAUAAUAGCCGCAAG [Fam3.1 aminoacylation ribozyme variant] 1.14
